# measuredOn: Fes (UniProt P07332)
# Sequence (P07332 whole entry, looked up): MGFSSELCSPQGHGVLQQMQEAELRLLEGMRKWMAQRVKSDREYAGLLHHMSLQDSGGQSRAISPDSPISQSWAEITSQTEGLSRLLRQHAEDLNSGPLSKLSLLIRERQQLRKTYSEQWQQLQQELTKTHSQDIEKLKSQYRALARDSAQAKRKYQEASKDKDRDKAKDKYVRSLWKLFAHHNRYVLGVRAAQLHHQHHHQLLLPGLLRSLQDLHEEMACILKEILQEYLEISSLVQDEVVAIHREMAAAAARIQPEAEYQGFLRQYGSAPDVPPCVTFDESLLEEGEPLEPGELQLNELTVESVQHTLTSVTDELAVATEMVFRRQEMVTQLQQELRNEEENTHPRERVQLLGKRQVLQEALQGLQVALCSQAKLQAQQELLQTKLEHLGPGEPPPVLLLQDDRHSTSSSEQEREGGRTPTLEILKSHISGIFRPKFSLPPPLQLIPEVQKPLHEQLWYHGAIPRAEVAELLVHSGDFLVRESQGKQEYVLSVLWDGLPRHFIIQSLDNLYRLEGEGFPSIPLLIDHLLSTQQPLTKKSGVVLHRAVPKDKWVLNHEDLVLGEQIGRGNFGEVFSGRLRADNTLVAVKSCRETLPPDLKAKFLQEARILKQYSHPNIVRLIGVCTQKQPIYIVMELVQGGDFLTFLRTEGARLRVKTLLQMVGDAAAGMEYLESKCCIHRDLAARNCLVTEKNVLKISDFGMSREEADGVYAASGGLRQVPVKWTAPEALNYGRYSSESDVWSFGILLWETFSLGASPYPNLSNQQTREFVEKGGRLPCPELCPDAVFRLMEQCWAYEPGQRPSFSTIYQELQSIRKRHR
# experimentDescription: phosphorylation enrichment, bacterial display (enrichment ratio); higher = better substrate or ligand; peptides without Tyr show the background
Kindly supply the reported phosphorylation enrichment values for the records listed here.

{"entrySequence": "ILGTFYETGSI [PAX2_Y73_R71T_YF]", "phosphorylation enrichment": 0.956}
{"entrySequence": "FEGHSYSACTT [MMP9_Y241_R239H]", "phosphorylation enrichment": 1.1}
{"entrySequence": "STQAHYRLSAF [ADAMTS9_Y100_S96T]", "phosphorylation enrichment": 0.63}
{"entrySequence": "MGSFNYLGFAR [SPTLC2_Y178_YF]", "phosphorylation enrichment": 0.661}
{"entrySequence": "HEVHIYEKSGA [ARPC1B_Y35]", "phosphorylation enrichment": 1.74}
{"entrySequence": "AFEQQYSPIPK [NOX1_Y373_R378K]", "phosphorylation enrichment": 0.741}

Give measured phosphorylation enrichment for every item shown.
1. MSRDVYSTDCF [NTRK2_Y702_Y706C_YF]
2. TEYSQYMRRKN [MAX_Y73_I71S]
3. NRLTDYYEPLL [BBS10_Y536]
4. SSFPDYLAAVD [GLB1_Y154_D151Y_YF]
5. TSAEGYQDVRD [ABLIM1_Y439_P434T]
6. AGGTRYRFVSQ [UCN3_Y95_R91G_YF]
7. DRLASYPDKVR [KRT14_Y129_L130P]

[reply]
1. 1.2
2. 0.622
3. 0.826
4. 1.09
5. 1.36
6. 0.43
7. 0.516

====

# measuredOn: Grb2 SH2 (UniProt P62993)
# Sequence (P62993 whole entry, looked up): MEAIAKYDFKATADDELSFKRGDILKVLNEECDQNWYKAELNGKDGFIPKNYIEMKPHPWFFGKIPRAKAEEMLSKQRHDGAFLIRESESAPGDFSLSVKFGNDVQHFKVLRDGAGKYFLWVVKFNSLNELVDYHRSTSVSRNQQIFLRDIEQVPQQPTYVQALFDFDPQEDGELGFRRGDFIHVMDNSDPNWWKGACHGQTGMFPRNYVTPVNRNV
# experimentDescription: SH2 binding enrichment of the phosphorylated peptide, bacterial display (enrichment ratio); higher = better substrate or ligand; peptides without Tyr show the background
Assign 1.0 whenever SH2 binding enrichment does not fall below 0.8; assign 0.0 whenever it does.

Here are 6 sequences together with their reported answers.
{"entrySequence": "TLQSMYGCDVG [HLA-B_Y123]", "classLabel": 1.0}
{"entrySequence": "KNNSIYVLANI [VNN1_Y134_V136L]", "classLabel": 1.0}
{"entrySequence": "RPQDGYRIVQH [PTPRT_Y1329]", "classLabel": 1.0}
{"entrySequence": "EKMWSYTKSAE [GRIA3_Y705_M706T]", "classLabel": 1.0}
{"entrySequence": "RDSQLYAVDYE [MRPS34_Y34]", "classLabel": 0.0}
{"entrySequence": "LNAGAYSKVVE [PPT1_Y172_Q177E]", "classLabel": 0.0}

For the next question, use this sequence.
[ask] Please tell me: is the sequence QKMADYSNKLY [PDPR_Y104] at or over 0.8 in terms of SH2 binding enrichment?
[reply] 0.0

====

# measuredOn: EPHB1 (UniProt P54762)
# Sequence (P54762 whole entry, looked up): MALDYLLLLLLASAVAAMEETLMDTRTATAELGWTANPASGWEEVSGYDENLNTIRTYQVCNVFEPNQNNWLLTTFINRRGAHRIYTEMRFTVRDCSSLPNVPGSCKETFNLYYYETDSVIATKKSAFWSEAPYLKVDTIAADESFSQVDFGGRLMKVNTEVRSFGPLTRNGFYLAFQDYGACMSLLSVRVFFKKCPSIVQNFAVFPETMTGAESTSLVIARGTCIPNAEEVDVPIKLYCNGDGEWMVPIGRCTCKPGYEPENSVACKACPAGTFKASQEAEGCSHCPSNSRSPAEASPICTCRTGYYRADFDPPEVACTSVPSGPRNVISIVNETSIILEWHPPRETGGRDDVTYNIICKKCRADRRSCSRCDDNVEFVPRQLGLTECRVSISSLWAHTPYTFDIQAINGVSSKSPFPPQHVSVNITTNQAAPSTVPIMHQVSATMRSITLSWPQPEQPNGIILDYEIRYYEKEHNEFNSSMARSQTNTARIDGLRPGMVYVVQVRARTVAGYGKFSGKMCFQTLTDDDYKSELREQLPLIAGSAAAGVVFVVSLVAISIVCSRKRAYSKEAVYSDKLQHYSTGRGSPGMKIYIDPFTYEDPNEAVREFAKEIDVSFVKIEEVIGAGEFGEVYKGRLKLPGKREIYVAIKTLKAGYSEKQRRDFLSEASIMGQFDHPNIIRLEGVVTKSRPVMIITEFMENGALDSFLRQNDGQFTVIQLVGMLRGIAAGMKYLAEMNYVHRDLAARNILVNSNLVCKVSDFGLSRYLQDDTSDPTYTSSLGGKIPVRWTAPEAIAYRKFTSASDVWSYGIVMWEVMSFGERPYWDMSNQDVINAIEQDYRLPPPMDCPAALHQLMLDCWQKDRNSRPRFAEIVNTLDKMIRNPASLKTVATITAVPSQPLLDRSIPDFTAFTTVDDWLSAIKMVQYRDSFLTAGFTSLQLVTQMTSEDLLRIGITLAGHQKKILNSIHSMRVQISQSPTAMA
# experimentDescription: phosphorylation enrichment, bacterial display (enrichment ratio); higher = better substrate or ligand; peptides without Tyr show the background
metric: phosphorylation enrichment
Give bare numbers.

Below, 8 sequences whose answers are already recorded.
{"entrySequence": "LLRFLYFFVCS [SLC34A2_Y109_G106R]", "observedResult": 0.606}
{"entrySequence": "RVGNMYVRGLS [ABCG8_Y209]", "observedResult": 0.457}
{"entrySequence": "QHNPEYVQQAT [LRRC7_Y1058_S1063T]", "observedResult": 0.425}
{"entrySequence": "YSDPSYVKQME [CDC5L_Y464]", "observedResult": 0.392}
{"entrySequence": "AGLEEYSAMRD [HRAS_Y64_Q61L]", "observedResult": 0.568}
{"entrySequence": "KNKNRCKNILP [PTPN11_Y279_Y279C]", "observedResult": 0.448}
{"entrySequence": "VDEVLYEDSSA [MTHFS_Y197_T202A]", "observedResult": 0.637}
{"entrySequence": "EKMWSYTKSAE [GRIA3_Y705_M706T]", "observedResult": 0.426}

Give measured phosphorylation enrichment for every item shown.
1. DFKIIYIAPMR [SNRNP200_Y540]
2. PRPAGYPSMVS [CACNA1C_Y1832_T1835M]
3. SGIFQYNIAKF [FOXL2_Y83_I84N_YF]
4. LPEVSYVKAID [GLRA1_Y307_K304E]
5. DRIVNYSRASI [ATP7A_Y1459]

[reply]
1: 0.586; 2: 0.393; 3: 0.59; 4: 0.095; 5: 0.432
